Data provenance is ChEMBL document CHEMBL6074711.

Reported MIC is given for each of the following compounds.
# Test system: Escherichia coli
# experiment-description: Antibacterial activity against Escherichia coli ATCC25922 incubated for 16 to 20 hrs by broth microdilution method
# Type: functional
# measurement-conditions: time 16-20 hrs

smiles-string	measured-on	MIC / µg/mL
CC[C@H]1OC(=O)C[C@@H](O)[C@H](C)[C@@H](O[C@@H]2O[C@H](C)[C@@H](O)[C@H](N(C)C)[C@H]2O)[C@@H](CCNCc2cn(-c3cnc4ccccc4c3)nn2)C[C@@H](C)C(=O)/C=C/C(C)=C/[C@@H]1CI	Escherichia coli	8
CC[C@H]1OC(=O)C[C@@H](O)[C@H](C)[C@@H](O[C@@H]2O[C@H](C)[C@@H](O)[C@H](N(C)C)[C@H]2O)[C@@H](CCN(C)Cc2cn(-c3cnc4ccccc4c3)nn2)C[C@@H](C)C(=O)/C=C/C(C)=C/[C@@H]1CN(C)Cc1ccccc1	Escherichia coli	1
